TEST TARGET: p300 HAT domain (residues 1287-1666) (Homo sapiens (Human), UniProt Q09472)
Sequence (Q09472 1287-1666): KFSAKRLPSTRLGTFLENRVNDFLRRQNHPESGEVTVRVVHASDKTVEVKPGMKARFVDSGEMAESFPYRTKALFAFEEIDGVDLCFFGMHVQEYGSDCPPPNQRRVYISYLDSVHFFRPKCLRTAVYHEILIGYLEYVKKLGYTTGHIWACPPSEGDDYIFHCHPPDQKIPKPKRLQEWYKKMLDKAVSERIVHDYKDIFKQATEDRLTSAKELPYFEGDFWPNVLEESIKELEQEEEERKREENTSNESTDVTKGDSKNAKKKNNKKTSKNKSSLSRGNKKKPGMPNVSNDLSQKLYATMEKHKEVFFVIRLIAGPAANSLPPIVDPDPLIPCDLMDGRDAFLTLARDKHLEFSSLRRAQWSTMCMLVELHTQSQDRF
ASSAY NAME: p300 HAT SPA assay (scintillation proximity assay, acetylation of biotinylated H3(1-21) peptide)
Format: biochemical
RUN PARAMETERS: p300 HAT domain; average of at least 2 replicate titrations; read-out: P300 HAT SPA IC50
pIC50: −log10 of the molar value.

COMPOUND | READOUT QUALIFIER | pIC50
Cn1cc(-c2ccc3c(C(=O)[C@@H](NCCc4ccc(N)nc4)c4ccccc4)c[nH]c3c2)cn1 (single isomer, unassigned) [187 Isomer 1] | < | 5.30
CC(C)NC(=O)c1ccc2c(C(=O)C(NCCc3ccc(C#N)cc3)c3ccccc3)c[nH]c2c1 (single isomer, unassigned) [167 Isomer 2] | = | 6.13
C[C@@H](NC(=O)c1ccc2c(C(=O)C(NCCc3ccc(C#N)cc3)c3ccccc3)c[nH]c2c1)C(F)(F)F (single isomer, unassigned) [170 Isomer 2] | = | 5.39
N#Cc1ccc(CCNC(C(=O)c2c[nH]c3ccccc23)c2ccccc2)cc1 (single isomer, unassigned) [58 Isomer 2] | = | 6.70
C[C@H](NC(=O)c1ccc2c(C(=O)C(NCCc3ccc(C#N)cc3)c3ccccc3)c[nH]c2c1)C(F)(F)F (single isomer, unassigned) [169 Isomer 2] | = | 7.06
Cn1cc(-c2ccc3c(C(=O)C(NCCc4ccc(Cl)cc4)c4ccccc4)c[nH]c3c2)cn1 (single isomer, unassigned) [83 Isomer 1] | = | 5.88

###

TEST TARGET: p300 HAT domain (residues 1287-1666) (Homo sapiens (Human), UniProt Q09472)
ASSAY NAME: p300 HAT SPA assay (scintillation proximity assay, acetylation of biotinylated H3(1-21) peptide)
Format: biochemical
RUN PARAMETERS: p300 HAT domain; average of at least 2 replicate titrations; read-out: P300 HAT SPA IC50
pIC50: −log10 of the molar value.
pIC50 values, listed per item
REPORTED ENDPOINT: pIC50

COMPOUND | READOUT QUALIFIER | NUMBER
NS(=O)(=O)c1ccc(CCNC(C(=O)c2c[nH]c3c(Cl)c(Cl)ccc23)c2ccccc2)cc1 (single isomer, unassigned) [55 Isomer 1] | = | 5.11
CNC(=O)Cc1ccc(CCNC(C(=O)c2c[nH]c3ccccc23)c2ccccc2)cc1 (single isomer, unassigned) [136 Isomer 1] | = | 5.06
O=C(c1c[nH]c2ccccc12)C(NCCn1cnc2ccccc21)c1ccccc1 (single isomer, unassigned) [37 Isomer 2] | < | 4.22
CNC(=O)c1ccc2c(C(=O)C(NCCc3ccc(Cl)cc3Cl)c3ccccc3)c[nH]c2c1 (single isomer, unassigned) [151 Isomer 1] | = | 4.94
NS(=O)(=O)c1ccc(CCNC(C(=O)c2c[nH]c3c(Cl)cccc23)c2ccccc2)cc1 (single isomer, unassigned) [15 Isomer 1] | < | 4.22
CN1CCN(c2ccc3c(C(=O)C(NCCc4ccc(S(N)(=O)=O)cc4)c4ccccc4)c[nH]c3c2)CC1 (single isomer, unassigned) [124 Isomer 2] | = | 6.25
Cn1cc(C(=O)C(NCCc2ccc(S(N)(=O)=O)cc2)c2ccccc2)c2ccccc21 (single isomer, unassigned) [17 Isomer 1] | = | 5.10
N#Cc1ccc(CCNC(C(=O)c2c[nH]c3cc(C(=O)N4CCCC4)ccc23)c2ccccc2)cc1 (single isomer, unassigned) [171 Isomer 2] | = | 6.03
CC(CNC(C(=O)c1c[nH]c2cc(-c3cnn(C)c3)ccc12)c1ccccc1)c1ccc(Cl)cc1 (single isomer, unassigned) [91 Isomer 2] | < | 4.52
Cc1[nH]c2ccccc2c1C(=O)C(NCCc1ccc(S(N)(=O)=O)cc1)c1ccccc1 (single isomer, unassigned) [16 Isomer 2] | = | 5.16
CNC(=O)c1cccc2c(C(=O)C(NCCc3ccc(Cl)cc3Cl)c3ccccc3)c[nH]c12 (single isomer, unassigned) [147 Isomer 1] | < | 4.52
CC(Cc1ccc(Cl)cc1Cl)NC(C(=O)c1c[nH]c2cc(-c3cnn(C)c3)ccc12)c1ccccc1 (single isomer, unassigned) [97 Isomer 3] | < | 4.52

###

TEST TARGET: p300 HAT domain (residues 1287-1666) (Homo sapiens (Human))
ASSAY NAME: p300 HAT SPA assay (scintillation proximity assay, acetylation of biotinylated H3(1-21) peptide)
Type: biochemical
RUN PARAMETERS: p300 HAT domain; average of at least 2 replicate titrations; read-out: P300 HAT SPA IC50

MOLECULE | READOUT QUALIFIER | IC50 [µM]
CN(C)C(=O)c1ccc(CCNC(C(=O)c2c[nH]c3ccccc23)c2ccccc2)cc1 (single isomer, unassigned) [135 Isomer 2] | = | 28.8
O=C(c1c[nH]c2ccccc12)C(NCCc1ccc(Cl)cc1)C1CC1 (single isomer, unassigned) [24 Isomer 1] | = | 52.2
CNC(=O)c1ccc2c(C(=O)C(NCCc3ccc(C#N)cc3)c3ccccc3)c[nH]c2c1 (single isomer, unassigned) [156 Isomer 1] | = | 0.584
O=C(c1c[nH]c2ccccc12)C(NCCc1cccc(Cl)c1)c1ccccc1 (single isomer, unassigned) [4 Isomer 2] | = | 4.4
N#Cc1ccc(CCNC(C(=O)c2c[nH]c3cc(CC(=O)O)ccc23)c2ccccc2)cc1 (single isomer, unassigned) [160 Isomer 2] | = | 4.01
NS(=O)(=O)c1ccc(CCNC(C(=O)c2c[nH]c3cccc(Cl)c23)c2ccccc2)cc1 (single isomer, unassigned) [12 Isomer 2] | > | 60

###

TEST TARGET: p300 HAT domain (residues 1287-1666) (Homo sapiens (Human), UniProt Q09472)
ASSAY NAME: p300 HAT SPA assay (scintillation proximity assay, acetylation of biotinylated H3(1-21) peptide)
Format: biochemical
RUN PARAMETERS: p300 HAT domain; average of at least 2 replicate titrations; read-out: P300 HAT SPA IC50
pIC50: −log10 of the molar value.
Classification field: enter TRUE for pIC50 values not below 6, FALSE for values below it.

COMPOUND | ASSIGNED LABEL
CN1CCN(c2ccc3c(C(=O)C(NCCc4ccc(S(N)(=O)=O)cc4)c4ccccc4)c[nH]c3c2)CC1 (single isomer, unassigned) [124 Isomer 1] | FALSE
Cc1nc(C(=O)C(NCCc2ccc(Cl)cc2)c2ccccc2)c2ccccn12 (single isomer, unassigned) [45 Isomer 1] | FALSE
O=C(c1c[nH]c2ccccc12)C(NCCc1ccc(Cl)cc1)c1ccncc1 (racemic) [44 Racemic] | FALSE
O=C(c1c[nH]c2ccccc12)C(NCCc1ccncc1)c1ccccc1 (single isomer, unassigned) [11 Isomer 1] | FALSE
CCNc1ccc(CCNC(C(=O)c2c[nH]c3ccccc23)c2ccccc2)cn1 (single isomer, unassigned) [53 Isomer 1] | FALSE
CC(Cc1ccc(Cl)cc1)NC(C(=O)c1c[nH]c2ccccc12)c1ccccc1 (single isomer, unassigned) [27 Isomer 2] | FALSE
N#Cc1ccc(CCNC(C(=O)c2c[nH]c3cc(C(=O)NC4CS(=O)(=O)C4)ccc23)c2ccccc2)cc1 (single isomer, unassigned) [166 Isomer 1] | TRUE
CCN1CC(NC(=O)c2ccc3c(C(=O)C(NCCc4ccc(C#N)cc4)c4ccccc4)c[nH]c3c2)C1 (single isomer, unassigned) [163 Isomer 1] | FALSE
COc1ccc(CCNC(C(=O)c2c[nH]c3ccccc23)c2ccccc2)cc1 (single isomer, unassigned) [8 Isomer 1] | FALSE
NS(=O)(=O)c1ccc(CCNC(C(=O)c2c[nH]c3ccncc23)c2ccccc2)cc1 (racemic) [Example 31] | FALSE
CCNC(=O)c1ccc2c(C(=O)C(NCCc3ccc(C#N)cc3Cl)c3ccccc3)c[nH]c2c1 (single isomer, unassigned) [71 Isomer 2] | TRUE
CNC(=O)c1ccc2c(C(=O)C(NCCc3ccc(Cl)cc3Cl)c3ccccc3)c[nH]c2c1 (single isomer, unassigned) [151 Isomer 2] | TRUE
Cn1cc(-c2ccc3c(C(=O)C(NCCc4ccc(C(=O)O)cc4Cl)c4ccccc4)c[nH]c3c2)cn1 (single isomer, unassigned) [142 Isomer 1] | FALSE
Cn1cnc(-c2ccc3c(C(=O)[C@@H](NCCc4ccc(C(N)=O)cc4)c4ccccc4)c[nH]c3c2)c1 (single isomer, unassigned) [177 Isomer 1] | FALSE
CS(=O)(=O)CCCNC(=O)c1ccc2c(C(=O)C(NCCc3ccc(C#N)cc3)c3ccccc3)c[nH]c2c1 (single isomer, unassigned) [175 Isomer 2] | TRUE
CCNC(=O)c1ccc2c(C(=O)C(C)NCCc3ccc(C#N)cc3)c[nH]c2c1 (single isomer, unassigned) [76 Isomer 1] | FALSE
O=C(c1c[nH]c2cc(-c3ccncc3)ccc12)C(NCCc1ccc(F)cc1)c1ccccc1 (single isomer, unassigned) [82 Isomer 1] | FALSE
COCCNc1ccc(CCNC(C(=O)c2c[nH]c3ccccc23)c2ccccc2)cn1 (single isomer, unassigned) [54 Isomer 1] | FALSE
NS(=O)(=O)c1ccc(CCNC(C(=O)c2c[nH]c3ncccc23)c2ccccc2)cc1 (single isomer, unassigned) [33 Isomer 1] | FALSE
Cc1nnc(-c2ccc3c(C(=O)C(NCCc4ccc(Cl)cc4)c4ccccc4)c[nH]c3c2)o1 (single isomer, unassigned) [107 Isomer 2] | FALSE
